The measurements presented in this section are drawn from patent US12441703B2.

Target: human NaV 1.8 (Homo sapiens, UniProt Q9Y5Y9)
Sequence (Q9Y5Y9 whole entry, looked up): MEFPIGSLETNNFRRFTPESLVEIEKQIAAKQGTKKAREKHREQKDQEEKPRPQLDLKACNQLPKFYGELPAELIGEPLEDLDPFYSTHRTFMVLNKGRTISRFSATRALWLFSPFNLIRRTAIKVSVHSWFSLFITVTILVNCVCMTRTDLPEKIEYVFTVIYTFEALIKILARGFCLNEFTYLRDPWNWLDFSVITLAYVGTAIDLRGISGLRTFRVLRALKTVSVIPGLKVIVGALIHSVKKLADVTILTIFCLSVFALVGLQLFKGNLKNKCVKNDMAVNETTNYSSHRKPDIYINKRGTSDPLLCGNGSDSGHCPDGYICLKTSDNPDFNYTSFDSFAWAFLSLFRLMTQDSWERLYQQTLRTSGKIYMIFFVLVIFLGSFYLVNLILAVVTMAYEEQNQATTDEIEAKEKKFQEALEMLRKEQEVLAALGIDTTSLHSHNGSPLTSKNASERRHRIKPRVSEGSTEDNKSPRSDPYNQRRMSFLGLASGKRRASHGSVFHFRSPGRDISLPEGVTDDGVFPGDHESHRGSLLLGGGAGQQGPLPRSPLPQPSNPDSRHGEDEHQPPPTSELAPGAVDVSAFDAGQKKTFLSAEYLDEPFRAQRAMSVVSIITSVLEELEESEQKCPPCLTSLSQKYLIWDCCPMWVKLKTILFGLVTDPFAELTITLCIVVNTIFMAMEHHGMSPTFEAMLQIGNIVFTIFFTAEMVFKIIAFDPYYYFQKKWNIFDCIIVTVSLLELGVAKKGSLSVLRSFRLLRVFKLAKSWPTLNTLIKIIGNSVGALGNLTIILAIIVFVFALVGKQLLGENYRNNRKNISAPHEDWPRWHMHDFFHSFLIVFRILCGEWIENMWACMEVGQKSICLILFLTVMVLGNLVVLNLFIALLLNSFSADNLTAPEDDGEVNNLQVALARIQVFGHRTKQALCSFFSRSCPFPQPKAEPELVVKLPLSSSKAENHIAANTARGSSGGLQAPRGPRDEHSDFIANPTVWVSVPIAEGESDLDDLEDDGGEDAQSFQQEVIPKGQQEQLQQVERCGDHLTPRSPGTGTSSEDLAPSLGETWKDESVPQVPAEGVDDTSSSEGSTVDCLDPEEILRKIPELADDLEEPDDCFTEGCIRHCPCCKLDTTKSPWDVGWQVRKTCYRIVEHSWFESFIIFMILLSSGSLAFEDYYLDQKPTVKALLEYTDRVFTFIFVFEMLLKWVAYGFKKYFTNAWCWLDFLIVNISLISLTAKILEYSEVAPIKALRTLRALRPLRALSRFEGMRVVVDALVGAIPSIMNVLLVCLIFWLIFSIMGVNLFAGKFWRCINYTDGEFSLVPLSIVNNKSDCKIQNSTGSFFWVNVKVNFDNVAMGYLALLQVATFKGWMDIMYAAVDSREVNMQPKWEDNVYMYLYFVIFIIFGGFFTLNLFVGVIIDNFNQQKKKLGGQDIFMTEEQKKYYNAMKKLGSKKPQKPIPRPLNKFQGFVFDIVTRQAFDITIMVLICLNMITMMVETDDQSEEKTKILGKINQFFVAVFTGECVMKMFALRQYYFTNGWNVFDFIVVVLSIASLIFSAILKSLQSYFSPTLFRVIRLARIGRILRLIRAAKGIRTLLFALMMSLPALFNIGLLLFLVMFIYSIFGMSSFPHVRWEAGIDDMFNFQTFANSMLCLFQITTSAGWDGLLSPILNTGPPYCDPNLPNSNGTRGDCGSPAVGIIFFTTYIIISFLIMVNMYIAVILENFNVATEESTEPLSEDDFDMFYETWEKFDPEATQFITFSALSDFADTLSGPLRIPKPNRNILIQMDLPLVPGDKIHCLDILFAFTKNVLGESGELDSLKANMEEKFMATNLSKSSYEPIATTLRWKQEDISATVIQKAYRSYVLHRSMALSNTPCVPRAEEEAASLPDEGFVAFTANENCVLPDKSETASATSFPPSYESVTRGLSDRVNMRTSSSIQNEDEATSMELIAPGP
Assay: E-VIPR assay for detecting and measuring NaV inhibition properties
Assay type: cell-based
Settings: E-VIPR assay conducted in the presence of human serum; HEK cells expressing truncated human NaV 1.8; read-out: IC50
For each record, write down the corresponding IC50.
Numbers only, in µM.

>  <Molecule>
Cc1cc(Cl)ccc1Oc1ccc(C(F)(F)F)c(C)c1C(=O)Nc1ccnc(C(N)=O)c1

>  <Experimental target>
human NaV 1.8 (Homo sapiens, UniProt Q9Y5Y9)

>  <Obs value>
0.14

$$$$
>  <Molecule>
Cc1cc(Cl)cc(Cl)c1Oc1ccc(C(F)(F)F)c(F)c1C(=O)Nc1ccnc(C(N)=O)c1

>  <Experimental target>
human NaV 1.8 (Homo sapiens, UniProt Q9Y5Y9)

>  <Obs value>
1.4

$$$$
>  <Molecule>
COc1c(Oc2cc(C(F)(F)F)c(C)c(F)c2C(=O)Nc2ccnc(C(N)=O)c2)ccc(OC(F)(F)F)c1F

>  <Experimental target>
human NaV 1.8 (Homo sapiens, UniProt Q9Y5Y9)

>  <Obs value>
0.0008

$$$$
>  <Molecule>
COc1cc(OC(F)(F)F)ccc1Oc1ccc(C(F)(F)F)c(OCC2CC2(F)F)c1C(=O)Nc1ccnc(C(N)=O)c1 (stereo not shown)

>  <Experimental target>
human NaV 1.8 (Homo sapiens, UniProt Q9Y5Y9)

>  <Obs value>
1

$$$$
>  <Molecule>
COc1cc(OC(F)(F)F)ccc1Oc1cc(C2=CCOC2)ccc1C(=O)Nc1ccnc(C(N)=O)c1

>  <Experimental target>
human NaV 1.8 (Homo sapiens, UniProt Q9Y5Y9)

>  <Obs value>
0.33

$$$$
>  <Molecule>
CC(C)Oc1ccc(Oc2ccc(C(F)(F)F)c(F)c2C(=O)Nc2ccnc(C(N)=O)c2)cc1F

>  <Experimental target>
human NaV 1.8 (Homo sapiens, UniProt Q9Y5Y9)

>  <Obs value>
0.024

$$$$

Please state IC50 for every molecule in the list that follows.
1. COc1cc(Oc2ccc(F)c(F)c2OC)c(C(=O)Nc2ccnc(C(N)=O)c2)c(F)c1C
2. COc1c(Oc2ccc(C(F)(F)F)c(F)c2C(=O)Nc2ccc(C(N)=O)nc2)ccc(F)c1F
3. COc1cc(OC(F)(F)F)ccc1Oc1cc(C2=CCC(C(F)(F)F)CC2)ccc1C(=O)Nc1ccnc(C(N)=O)c1 (stereo not shown) [Compound 1031]

Data returned:
1. 0.012
2. 0.695
3. 2.05

Please state IC50 for every molecule in the list that follows.
1. NC(=O)c1cc(NC(=O)c2c(Oc3ccc(F)c(F)c3Cl)ccc(C(F)(F)F)c2F)ccn1
2. COc1c(Oc2ccc(C3CCC3)c(F)c2C(=O)Nc2ccnc(C(N)=O)c2)ccc(OC(F)(F)F)c1F
3. NC(=O)c1cc(NC(=O)c2cc(C(F)(F)F)ccc2Oc2ccc(F)cc2Cl)ccn1
4. COc1c(C(F)(F)F)ccc(Oc2ccc(OC(C)C)cc2)c1C(=O)Nc1ccnc(C(N)=O)c1

Data returned:
1: 0.027; 2: 0.0025; 3: 1.2; 4: 0.11
